The measurements presented in this section are drawn from patent US9440952B2.

Biological target: LRRK2(G2019S mutation, GST-LRRK2(amino acids 970-2527)) (Homo sapiens, UniProt Q5S007, G2019S)
Construct: GST-LRRK2(amino acids 970-2527); GST (N); purchased Life Technologies Corporation
Sequence (Q5S007 970-2527 G2019S): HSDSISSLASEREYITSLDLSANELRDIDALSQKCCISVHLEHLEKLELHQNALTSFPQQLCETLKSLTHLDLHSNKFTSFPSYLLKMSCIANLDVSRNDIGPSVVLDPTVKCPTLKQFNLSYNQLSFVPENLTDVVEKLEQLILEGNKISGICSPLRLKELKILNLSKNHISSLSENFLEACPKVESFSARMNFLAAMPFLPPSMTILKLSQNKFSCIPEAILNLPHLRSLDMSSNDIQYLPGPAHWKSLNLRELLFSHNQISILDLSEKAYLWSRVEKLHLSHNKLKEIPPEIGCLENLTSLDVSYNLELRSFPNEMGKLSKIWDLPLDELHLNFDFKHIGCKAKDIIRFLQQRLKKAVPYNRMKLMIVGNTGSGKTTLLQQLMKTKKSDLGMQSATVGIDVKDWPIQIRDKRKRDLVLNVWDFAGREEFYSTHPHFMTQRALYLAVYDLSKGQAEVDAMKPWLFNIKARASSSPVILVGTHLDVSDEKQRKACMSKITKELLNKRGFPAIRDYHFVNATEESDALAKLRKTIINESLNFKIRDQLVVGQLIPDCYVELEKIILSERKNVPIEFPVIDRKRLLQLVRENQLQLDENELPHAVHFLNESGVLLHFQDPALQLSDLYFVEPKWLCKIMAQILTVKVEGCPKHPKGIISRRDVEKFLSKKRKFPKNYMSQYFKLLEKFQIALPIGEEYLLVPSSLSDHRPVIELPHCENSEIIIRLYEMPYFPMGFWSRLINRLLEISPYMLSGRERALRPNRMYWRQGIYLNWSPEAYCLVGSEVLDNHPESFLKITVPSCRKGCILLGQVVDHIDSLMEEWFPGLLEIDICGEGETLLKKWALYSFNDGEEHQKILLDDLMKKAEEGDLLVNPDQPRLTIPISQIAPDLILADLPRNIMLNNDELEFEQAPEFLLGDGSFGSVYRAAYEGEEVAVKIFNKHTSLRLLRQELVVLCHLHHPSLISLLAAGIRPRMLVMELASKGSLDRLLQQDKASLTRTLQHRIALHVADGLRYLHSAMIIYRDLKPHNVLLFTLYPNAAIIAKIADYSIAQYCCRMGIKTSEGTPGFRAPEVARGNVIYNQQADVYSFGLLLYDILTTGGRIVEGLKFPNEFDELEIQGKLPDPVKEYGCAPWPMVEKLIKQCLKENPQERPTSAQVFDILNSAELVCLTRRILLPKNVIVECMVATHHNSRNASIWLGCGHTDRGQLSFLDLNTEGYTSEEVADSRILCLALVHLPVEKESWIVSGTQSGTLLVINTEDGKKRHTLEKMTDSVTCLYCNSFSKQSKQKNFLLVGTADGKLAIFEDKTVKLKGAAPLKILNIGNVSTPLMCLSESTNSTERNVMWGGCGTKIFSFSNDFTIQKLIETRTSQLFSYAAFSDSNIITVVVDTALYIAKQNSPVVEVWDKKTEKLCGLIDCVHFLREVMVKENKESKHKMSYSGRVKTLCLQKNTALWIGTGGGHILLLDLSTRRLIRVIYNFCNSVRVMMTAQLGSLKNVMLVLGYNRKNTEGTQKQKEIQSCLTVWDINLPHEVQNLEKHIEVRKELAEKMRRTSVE
Assay: LRRK2 Km ATP LanthaScreen Assay
Assay type: biochemical
Details: Km ATP LanthaScreen Assay; LRRK2 G2019S; mean IC50 values; read-out: LRRK2 IC50
pIC50: −log10 of the molar value.
Assign Y to entries whose pIC50 meets or exceeds 8; assign N to the rest.

{"compound": "c1cncc(N2CCN(c3cc(-c4n[nH]c5ccccc45)ccn3)CC2)c1 [Example 24]", "cat": "N"}
{"compound": "CC(C)Oc1ccc2[nH]nc(-c3ccnc(N4CCC(n5ccnc5)C4)c3)c2c1 (centres unmarked) [Example 171]", "cat": "Y"}
{"compound": "c1cc(-c2n[nH]c3ccc(OCCN4CCOCC4)cc23)cc(N2CCOCC2)n1 [Example 82]", "cat": "Y"}
{"compound": "c1ccc2c(-c3ccnc(N4CCC(N5CCOCC5)CC4)c3)n[nH]c2c1 [Example 27]", "cat": "N"}
{"compound": "Cc1nc2c(o1)CCN(c1cc(-c3n[nH]c4ccc(OC(F)(F)F)cc34)ccn1)C2 [Example 251]", "cat": "N"}
{"compound": "CN1CCC(CN(C)c2cc(-c3n[nH]c4ccccc34)ccn2)CC1 [Example 50]", "cat": "N"}
